molecular target: T1, human serum albumin (human, UniProt P02768 25-609); experiment: SPR Biacore 3000, HSA on chip, pH 5.5
T1 construct: Immobilised on SPR chips; also added in solution to the cell assays; also called HSA; humanSA
R0 pH5.5: recorded values
API: value field is a number in RU; no unit string.

What value of R0 pH5.5 has been reported for the following binder? TA-Fc-ABDEG-2H11-v16 (Fc fusion, Scaffold as for m24) DKTHTCPPCPAPELLGGPSVFLFPPKPKDTLYITREPEVTCVVVDVSHEDPEVKFNWYVDGVEVHNAKTKPREEQYNSTYRVVSVLTVLHQDWLNGKEYKCKVSNKALPAPIEKTISKAKGQPREPQVYTLPPSRDELTKNQVSLTCLVKGFYPSDIAVEWESNGQPENNYKTTPPVLDSDGSFFLYSKLTVDKSRWQQGNVFSCSVMHEALKFHYTQKSLSLSPGGGGGSGGGGSGGGGSGGGGSELQVVESGGGLVQAGGSLRLSCAASGRTFRSNTMGWFRQAPGKEREFVAAITWSGGTTYYADSVKGRFAISGDNAKNTVYLQMNSLKPEDTAVYYCAAEGPKWEPWNGIYHPADAGSWGQGTQVTVSS 8.91

For the binder shown here, TA-Fc-ABDEG-2H11-v3 (Fc fusion) DKTHTCPPCPAPELLGGPSVFLFPPKPKDTLYITREPEVTCVVVDVSHEDPEVKFNWYVDGVEVHNAKTKPREEQYNSTYRVVSVLTVLHQDWLNGKEYKCKVSNKALPAPIEKTISKAKGQPREPQVYTLPPSRDELTKNQVSLTCLVKGFYPSDIAVEWESNGQPENNYKTTPPVLDSDGSFFLYSKLTVDKSRWQQGNVFSCSVMHEALKFHYTQKSLSLSPGGGGGSGGGGSGGGGSGGGGSELQVVESGGGLVQAGGSLRLSCAASGRTFRSNTMGWFRQAPGKEREFVAAITWSGGTTYYADSVKGRFAISGDNAKNTVYLQMNSLKPEDTAVYYCAAEGAKWEPWNGIYHPADFGSWGQGTQVTVSS , give the reported R0 pH5.5. 164

Below: the item to evaluate.
Dear colleague, I am looking for the recorded R0 pH5.5 of the following binder: TA-Fc-ABDEG-2H11-v15 (Fc fusion) DKTHTCPPCPAPELLGGPSVFLFPPKPKDTLYITREPEVTCVVVDVSHEDPEVKFNWYVDGVEVHNAKTKPREEQYNSTYRVVSVLTVLHQDWLNGKEYKCKVSNKALPAPIEKTISKAKGQPREPQVYTLPPSRDELTKNQVSLTCLVKGFYPSDIAVEWESNGQPENNYKTTPPVLDSDGSFFLYSKLTVDKSRWQQGNVFSCSVMHEALKFHYTQKSLSLSPGGGGGSGGGGSGGGGSGGGGSELQVVESGGGLVQAGGSLRLSCAASGRTFRSNTMGWFRQAPGKEREFVAAITWSGGTTYYADSVKGRFAISGDNAKNTVYLQMNSLKPEDTAVYYCAAEGPKWEPWNGIYHPAAFGSWGQGTQVTVSS 235
